Molecular target: Urotensin-2 receptor (Rattus norvegicus)
Assay: Antagonist activity at UT2 receptor in Sprague-Dawley rat thoracic aorta ring assessed as Emax for URP-induced aortic contractions at 10^-5M relative to KCl
Assay type: tissue-based
Where a SMILES comes first, the peptide text is derived from it.
Overview of reported Emax across a group of compounds:
PROPERTY: Emax (%)

CC(C)[C@H](NC(=O)[C@@H]1CSSC[C@H](NC(=O)[C@@H](N)CC(=O)O)C(=O)N[C@@H](Cc2ccccc2)C(=O)NN(Cc2ccc3ccccc3c2)S(=O)(=O)N[C@@H](CCCCN)C(=O)N[C@@H](Cc2ccc(O)cc2)C(=O)N1)C(=O)O; 105
CC(C)[C@H](NC(=O)[C@@H]1CSSC[C@H](NC(=O)[C@@H](N)CC(=O)O)C(=O)N[C@@H](Cc2ccccc2)C(=O)NN(Cc2cccc3ccccc23)S(=O)(=O)N[C@@H](CCCCN)C(=O)N[C@@H](Cc2ccc(O)cc2)C(=O)N1)C(=O)O; 38
CC(C)[C@H](NC(=O)[C@@H]1CSSC[C@H](NC(=O)[C@@H](N)CC(=O)O)C(=O)N[C@@H](Cc2ccccc2)C(=O)NN(Cc2ccccc2)S(=O)(=O)N[C@@H](CCCCN)C(=O)N[C@@H](Cc2ccc(O)cc2)C(=O)N1)C(=O)O (HELM PEPTIDE1{D.C.F.[NCCCC[C@H](NS(=O)(=O)N(Cc1ccccc1)N[*:1])C(=O)[*:2]].Y.C.V}$PEPTIDE1,PEPTIDE1,2:R3-6:R3$$$V2.0); 101
CC(C)[C@H](NC(=O)[C@@H]1CSSC[C@H](NC(=O)[C@@H](N)CC(=O)O)C(=O)N[C@@H](Cc2ccccc2)C(=O)N[C@@H](Cc2c[nH]c3ccccc23)C(=O)NN(CCCCN(C)C)S(=O)(=O)N[C@@H](Cc2ccc(O)cc2)C(=O)N1)C(=O)O (HELM PEPTIDE1{D.C.F.W.[CN(C)CCCCN(N[*:1])S(=O)(=O)N[C@@H](Cc1ccc(O)cc1)C(=O)[*:2]].C.V}$PEPTIDE1,PEPTIDE1,2:R3-6:R3$$$V2.0); 110
